Cited source: PubChem BioAssay

- METHOD_NOTES: growth inhibition, single agents and combos, CRL2098, cell-based, BGB or cisplatin IC20 combos, synergistic combos for chromothripsis tumors (AID 1671454);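 note: cells exposed for 96 h before readout; 0% = vehicle DMSO and 100% = killing by high DMSO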
- RUN_CONDITIONS: CRL2098 osteosarcoma cells, drug combinations, measured here: combination with cisplatin at IC20, at 0.5 µM, stronger effect = higher value
MEASURE_NAME: inhibition (%)

COMPOUND	UNITS	RECORDED_NUMBER
CC(C)OC(=O)[C@H](C)NP(=O)(OC[C@H]1O[C@@H](n2ccc(=O)[nH]c2=O)C(C)(F)[C@@H]1O)Oc1ccccc1 (stereo not given in full)	%	-18.3
O=c1[nH]c(=O)n(C2CC(O)C(CO)O2)cc1I (stereo not given)	%	-41.5
O=C(CCSc1nc2ccccc2c(=O)[nH]1)NC1CCC(c2nnc(-c3ccccc3)o2)CC1 (stereo not given)	%	-55.1
CC1CNC(=O)NC1=O (stereo not given)	%	-130
O=C(O)c1cc2cccc([N+](=O)[O-])c2[nH]1	%	-78.8
